Quick list: GI50 per entry.
System: SK-MEL-28
Experiment: NCI tumour cell line growth inhibition, 48 h
Calls of active or inactive are those of the source. No stated cut-off is given here; in the data, active = GI50 up to about 1.1 µM and inactive = higher.

# Molecule, GI50
rows = [
    ("C/C(=N/NC(=O)C(N)=O)C(CC(C(=O)Nc1ccccc1C)/C(C)=N\\NC(=O)C(N)=O)C(=O)Nc1ccccc1C (stereo not given)", "> 100 µM (inactive)"),
    ("CC1CC[C@@]2(OC1)OC1C[C@H]3[C@@H]4CCC5CC(O)CC[C@]5(C)[C@H]4C/C(=N\\N(C)C)[C@]3(C)C1[C@@H]2C (stereo not given in full)", "43.7 µM (inactive)"),
    ("CN(COC(=O)c1ccccc1)c1nc(N(C)COC(=O)c2ccccc2)nc(N(C)COC(=O)c2ccccc2)n1", "> 100 µM (inactive)"),
    ("N=C(N)N/N=C/c1c(-c2ccc(Cl)c(Cl)c2Cl)nc2sccn12", "1.73 µM (inactive)"),
    ("Cc1noc(C)c1/N=N/c1ccc2nonc2c1N", "> 100 µM (inactive)"),
]

====

Quick list: GI50 per entry.
Tested on: ACHN
Experiment: NCI tumour cell line growth inhibition, 48 h
Active and inactive are the calls of the source. Cut-off read from the data, not from the text of the source: active = GI50 up to about 1.1 µM and inactive = higher. Residues, ends and D or L forms follow the SMILES beside them. Groups on a side chain read outwards from the residue. *: point of attachment. Cbz = O=C(OCc1ccccc1)*; Boc = CC(C)(C)OC(=O)*

# Compound, GI50
records = [
    ("Cc1nc2c(Br)cc(Br)cc2c(=O)n1-c1ccccc1NC1OC(CO)C(O)C(O)C1O (stereo not given)", "> 100 µM (inactive)"),
    ("O=C(O)\\C=C/C=C/C=C/C=C/C(=O)O", "> 100 µM (inactive)"),
    ("C[C@]12CC[C@@H]3c4cc(OCC(F)(F)F)c(O)cc4CC[C@H]3[C@@H]1CC[C@@H]2O", "7.74 µM (inactive)"),
    ("CCOC(=O)C(SCCO)C(C(=O)OCC)n1cc(C)c(=O)[nH]c1=O (stereo not given)", "8.75 µM (inactive)"),
    ("COc1ccc2c(c1)CC[C@@H]1C2CC[C@]2(C)C(=O)NC(=O)CC12 (stereo not given in full)", "> 100 µM (inactive)"),
    ("O=C1CN(c2ccccc2)C(=O)C1C(=O)Nc1ccc(Cl)c(Cl)c1 (stereo not given)", "4 µM (inactive)"),
    ("CCOC(=O)c1c(-c2cccc3ccccc23)c(C#N)c(=S)n(C2OC(COC(C)=O)C(OC(C)=O)C(OC(C)=O)C2OC(C)=O)c1C (stereo not given)", "> 100 µM (inactive)"),
    ("O=C1CC(c2ccccc2)[S+]([O-])c2ccccc2N1 (stereo not given)", "> 100 µM (inactive)"),
    ("CCCCCCCSCC1C(=O)C23C(O)C1CCC2C12COC3(O)C(O)C1C(C)(C)CCC2O (stereo not given)", "12.4 µM (inactive)"),
    ("CCCCOC(=O)NC(Nc1cccc(C(F)(F)F)c1)(C(F)(F)F)C(F)(F)F", "47.4 µM (inactive)"),
    ("CC(C)CC(NC(=O)OCc1ccccc1)C(=O)NCCCCC(NC(=O)C(CCCCNC(=O)C(CC(C)C)NC(=O)OCc1ccccc1)NC(=O)C(CCCCNC(=O)C(CC(C)C)NC(=O)OCc1ccccc1)NC(=O)C(CCCCNC(=O)C(CC(C)C)NC(=O)OCc1ccccc1)NC(=O)OC(C)(C)C)C(=O)O (stereo not given) (Boc-K([Leu-Cbz])K([Leu-Cbz])K([Leu-Cbz])K([Leu-Cbz])-OH; configuration not given here)", "> 25 µM (inactive)"),
    ("CCOP(=O)(OCC)/C(C#N)=C\\c1ccsc1", "> 100 µM (inactive)"),
    ("CCOC(=O)c1nc2cc(C(F)(F)F)ccc2nc1Oc1ccc(F)cc1", "> 100 µM (inactive)"),
    ("Cn1c(COC(=O)Nc2ccccc2)c(COC(=O)Nc2ccccc2)c2ccc3cc(Cl)c(Cl)cc3c21", "8.79 µM (inactive)"),
    ("Nc1cc2c(C3OC(CO)C(O)C3O)n[nH]c2c(=S)[nH]1 (stereo not given)", "> 100 µM (inactive)"),
    ("COc1ccc(/C(C)=C2\\CCCN(Cc3ccccc3)C2)cc1", "28.1 µM (inactive)"),
    ("COC(=O)[C@@]12OC[C@]34C([C@@H](O)C1O)[C@@]1(C)CC(=O)C(OC(=O)/C=C(/c5ccccc5)C(F)(F)F)=C(C)C1C[C@H]3OC(=O)[C@H](O)[C@H]42 (stereo not given in full)", "13.9 µM (inactive)"),
    ("CCCCCCCC(=O)OC[n+]1ccc(-c2c(COC(=O)NC(C)C)c(COC(=O)NC(C)C)c3n2CCC3)cc1", "20.4 µM (inactive)"),
    ("NS(=O)(=O)c1ccc(N=C2C(=O)Nc3ccccc32)cc1", "> 100 µM (inactive)"),
    ("OCCCN=C1CCCCC1", "> 100 µM (inactive)"),
]

====

Test system: A549
Experiment: NCI tumour cell line growth inhibition, 48 h
Activity calls are given as the source filed them. Rule as the data show it: active = GI50 up to about 1.1 µM and inactive = higher.
Quick list: GI50 per entry.

# Molecule, GI50
records = [
    ("COc1ccc(OC)c(N2C(=O)/C(=C\\c3ccccc3)SC2c2cc(OC)c(OC)c(OC)c2)c1 (stereo not drawn)", "> 85.7 µM (inactive)"),
    ("Cc1c(Cl)cccc1NC(=O)/C=C/c1ccccc1", "> 100 µM (inactive)"),
    ("CCOC(=O)c1csc(NC(=O)CCCC#N)n1", "> 100 µM (inactive)"),
    ("O=C(O)c1ccccc1CC1Cc2ccccc2C1=O (stereo not drawn)", "> 100 µM (inactive)"),
    ("C[C@@H]1OC(=O)C[C@H]2CC(=O)N(CCc3cn(S(=O)(=O)C(F)(F)F)c4ccccc34)C[C@@H]21", "> 100 µM (inactive)"),
    ("O=C1C2C3C=C4c5ccccc5N(c5ccccc5)C4(C2C(=O)N1c1ccc(Br)cc1)[C@H]1C(=O)N(c2ccc(Br)cc2)C(=O)[C@@H]31 (stereo partly drawn)", "> 100 µM (inactive)"),
    ("CC1=CC[C@@H]2[C@@H](CC[C@@]2(C)O)C(C)(C)[C@H]1CC[C@@H]1[C@@]2(C)CC[C@@H](O)C(C)(C)O[C@@H]2CC[C@]1(C)O", "27.3 µM (inactive)"),
    ("CCOC1=C2C(C)(CCC3[C@@]4(C)C=CC(=O)C(C)(C)C4CC(O)[C@@]23C)C(c2ccoc2)C1=O (stereo partly drawn)", "21.1 µM (inactive)"),
    ("CC12C=C[C@]3(CC[C@@H]4[C@@](C)(CO)CCC[C@]4(C)C3CC1)C2 (stereo partly drawn)", "18.2 µM (inactive)"),
    ("Cc1ccc2c(c1)C(=O)C1(Cc3ccccc3C1=O)C2 (stereo not drawn)", "> 100 µM (inactive)"),
    ("C1COCCSC2=C(SCCO1)SC(=C1SC3=C(SCCOCCOCCS3)S1)S2", "> 100 µM (inactive)"),
    ("COc1ccc(C2=Nc3c(nc(OC)[nH]c3=O)NC(c3ccccc3)C2)cc1 (stereo not drawn)", "34.4 µM (inactive)"),
    ("Cc1ccc(S(=O)(=O)N/N=C2\\CC3C4C=CC3C2C4)cc1 (stereo not drawn)", "> 100 µM (inactive)"),
]

====

Test system: COLO 205
Experiment: NCI tumour cell line growth inhibition, 48 h
Active and inactive are the calls of the source. Cut-off read from the data, not from the text of the source: active = GI50 up to about 1.1 µM and inactive = higher.
Endpoint: GI50

# Molecule, Reported Value
rows = [
    ("CCOC(=O)C(NC(=O)CC)(Nc1ccc(F)cc1F)C(F)(F)F (configuration not stated)", "> 100 µM (inactive)"),
    ("CCOC(=O)c1sc2c(c1OC(=O)c1cc(OC)c(OC)c(OC)c1)c(=O)n(-c1ccccc1)c(=S)n2-c1ccccc1", "> 100 µM (inactive)"),
    ("COc1cccc(Nc2nc3c([nH]2)c(=O)n(C)c(=O)n3C)c1", "> 10 µM (inactive)"),
    ("CCOP(=O)(OCC)/C(C#N)=C\\c1ccsc1", "> 100 µM (inactive)"),
    ("Cn1c(=O)c(Br)c(C=O)n(CCO[N+](=O)[O-])c1=O", "5.92 µM (inactive)"),
    ("CC1=CC[C@@H]2[C@@H](CC[C@@]2(C)O)C(C)(C)[C@H]1CC[C@@H]1[C@@]2(C)CC[C@@H](O)C(C)(C)O[C@@H]2CC[C@]1(C)O", "19.4 µM (inactive)"),
    ("CC(=O)Nc1ccc(-c2nc3ccccc3s2)cc1Cl", "> 100 µM (inactive)"),
    ("CC(C)(C)OC(=O)NCCNC(=O)CN(CC(=O)O)C1CCCCC1N(CC(=O)O)CC(=O)O (configuration not stated)", "> 100 µM (inactive)"),
    ("COc1ccccc1C(O)[C@@H]1C[C@@H]2[C@H]3CC[C@@](C)([C@@H]2O1)C3(C)C (some centres not stated)", "19.1 µM (inactive)"),
    ("Cn1c(COC(=O)Nc2ccccc2)c(COC(=O)Nc2ccccc2)c2ccc3cc(Cl)c(Cl)cc3c21", "3.39 µM (inactive)"),
    ("CO[C@]12CC(=O)C3(C(C[C@H]4CC5CC[C@H]6C[C@@H](OC(C)=O)CC[C@]6(OC(C)=O)C5C[C@@]43C)C1)C1C[C@H]3[C@@H]4CC[C@H]5C[C@@H](OC(C)=O)CC[C@]5(OC(C)=O)[C@H]4CC[C@]3(C)C12 (some centres not stated)", "40.5 µM (inactive)"),
    ("c1n[nH]cc1C12C3C4C5C3C1C5C42 (configuration not stated)", "> 100 µM (inactive)"),
]
